Where do the numbers come from? From patent US11591369B2.

Here the recorded intact peptide in mouse serum is given for each entry.
condition_description: 37° C., 1 hour, radio-HPLC
Primed or numbered codes have the meaning given here. Where no end group is shown, it is not given here. [ ]: non-standard residue; d: D form. The star is where a group is joined. (18F)FB = [18F] fluorobenzoyl group, O=C(c1ccc([18F])cc1)*; (18F)FB″ = [18F]fluorobenzoyl, O=C(c1ccc([18F])cc1)*; PEG12′ = polyethylene glycol, 12 units; PEG28″ = polyethylene glycol, 28 units; PEG2′ = polyethylene glycol, 2 units; PEG8′ = polyethylene glycol, 8 units; PEG28′ = polyethylene glycol-28; Amb = aminomethylbenzoyl

substance | censoring_operator | intact peptide in mouse serum, %
[^18F]FB-Amb-VGDLTYLKQKVART-PEG28 ({(18F)FB″-Amb}-VGDLTYLKQKVART[PEG28′]) [N-[^18F]T1-f] | < | 50
[^18F]FB-PEG8-VGDLTYLKQKVART-PEG28 ({(18F)FB″-PEG8′}-VGDLTYLKQKVART[PEG28″]) [N-[^18F]T1-c] | = | 91
[^18F]FB-RGDLTYLKQKVART-PEG28 ({(18F)FB″}-RGDLTYLKQKVART[PEG28′]) [N-[^18F]T1-V1R] | = | 54
RGDLADLRK([^18F]FB) (RGDLADLRK((18F)FB″)) [[^18F]P3] | = | 0
[^18F]FB-PEG12-VGDLTYLKQKVART-PEG28 ({(18F)FB″-PEG12′}-VGDLTYLKQKVART[PEG28″]) [N-[^18F]T1-d] | = | 82
[^18F]FB-VGDLTYLKQKVART-PEG28 ({(18F)FB″}-VGDLTYLKQKVART[PEG28′]) [N-[^18F]T1] | = | 61
VGDLTYLKK([^18F]FB)KVART (VGDLTYLKK((18F)FB″)KVART) [[^18F]P1K-a] | > | 99
[^18F]FB-RGDLADLRQKVART ({(18F)FB″}-RGDLADLRQKVART) [N-[^18F]P3Q] | = | 16
[^18F]FB-PEG28Amb-VGDLTYLKQKVART-PEG28 ({(18F)FB-PEG28′-Amb}-VGDLTYLKQKVART[PEG28′]) [N-[^18F]T1-g] | = | 90
[^18F]FB-PEG2-VGDLTYLKQKVART-PEG28 ({(18F)FB″-PEG2′}-VGDLTYLKQKVART[PEG28″]) [N-[^18F]T1-a] | = | 65
